Give measured pIC50 for each item. Keep answers brief.
Biological target: human CTPS1 (Homo sapiens)
Construct: FLAG (with GG linker); His8 (with GG linker); purchased Proteros biostructures GmbH
Sequence (P17812 1-591): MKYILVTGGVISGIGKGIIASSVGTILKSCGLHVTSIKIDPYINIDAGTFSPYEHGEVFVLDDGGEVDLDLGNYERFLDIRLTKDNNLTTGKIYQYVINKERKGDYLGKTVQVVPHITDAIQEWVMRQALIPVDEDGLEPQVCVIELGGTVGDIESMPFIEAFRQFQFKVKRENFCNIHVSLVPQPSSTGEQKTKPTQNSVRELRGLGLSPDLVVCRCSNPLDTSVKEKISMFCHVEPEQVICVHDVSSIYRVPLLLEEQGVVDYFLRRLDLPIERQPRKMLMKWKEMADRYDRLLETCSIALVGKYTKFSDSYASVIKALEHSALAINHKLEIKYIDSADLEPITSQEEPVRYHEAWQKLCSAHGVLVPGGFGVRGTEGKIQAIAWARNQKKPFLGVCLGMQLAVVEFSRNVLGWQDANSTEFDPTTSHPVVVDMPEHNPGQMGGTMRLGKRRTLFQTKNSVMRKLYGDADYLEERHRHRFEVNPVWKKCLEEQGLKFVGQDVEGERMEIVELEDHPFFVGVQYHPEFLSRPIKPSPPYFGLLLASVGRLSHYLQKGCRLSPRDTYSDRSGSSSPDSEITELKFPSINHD
Experiment: Human CTPS1 enzyme inhibition, ADP-Glo Max assay
Assay type: biochemical
Settings: ADP-Glo Max assay, human full length CTPS1; read-out: CTPS1 (Human CTPS1 Enzyme Inhibition data grouped by potency range, IC50)
pIC50: −log10 of the molar value.

Report pIC50 for every entry below.
1. CCOc1cncc(-c2ccc(NC(=O)C3(c4ccnc(NS(=O)(=O)C5CC5)n4)CCN(C(=O)OC(C)(C)C)CC3)nc2)n1 [P139]
2. CCOc1cncc(-c2ccc(NC(=O)C(F)(CC)c3ccnc(NS(=O)(=O)C4CC4)n3)nc2)n1 (centres unmarked) [P112]

["> 7.00", "> 7.00"]
